SUBJECT_OF_TEST: UniProt P00749
MEASUREMENT_DESCRIPTION: biochemical
APPLIED_CONDITIONS: Table 2; S-2444 substrate, pH 8.8, 37° C.; read-out: Urokinase S-2444 (I50)
Where a name gives a salt, the structure may show the parent alone.
READOUT_LABEL: pIC50
One number for each entry, as −log10 of the molar value.

CCOC(=O)c1ccc(COc2ccc(C[C@H](NC(=O)[C@H]3CC[C@H](CN)CC3)C(=O)Nc3ccc(C(C)=O)cc3)cc2)cc1 [compound 86]    4.64
Cc1ccc(NC(=O)[C@H](Cc2ccc(OCc3ccccc3)cc2)NC(=O)[C@H]2CC[C@H](CN)CC2)cc1 [compound 26]    3.25
CC(=O)c1ccc(NC(=O)[C@H](Cc2ccc(OCc3cccc(C#N)c3)cc2)NC(=O)[C@H]2CC[C@H](CN)CC2)cc1 [Compound No. 122, hydrochloride]    4.47
CC(=O)c1ccc(NC(=O)[C@H](Cc2ccc(OCc3cccc(F)c3)cc2)NC(=O)[C@H]2CC[C@H](CN)CC2)cc1 [compound 56]    4.34
NCC1CCC(C(=O)NC(Cc2ccc(OCc3cccc(Cl)c3)cc2)C(=O)Nc2cccc(S(N)(=O)=O)c2)CC1 (stereo not shown) [compound 93]    4.11

Can you give me pIC50 for all of these, one by one?
1. CC(=O)c1ccc(NC(=O)[C@H](Cc2ccc(OCc3ccncc3)cc2)NC(=O)[C@H]2CC[C@H](CN)CC2)cc1 [compound 68]
2. CC(=O)c1ccc(NC(=O)[C@H](Cc2ccc(OCc3ccc(Cl)cc3)cc2)NC(=O)[C@H]2CC[C@H](CN)CC2)cc1 [Compound No. 5]
3. CC(=O)c1ccc(NC(=O)[C@H](Cc2ccc(Oc3ccc([N+](=O)[O-])cc3)cc2)NC(=O)[C@H]2CC[C@H](CN)CC2)cc1 [Compound No. 95, hydrochloride]
4. NC[C@H]1CC[C@H](C(=O)N[C@@H](Cc2ccc(OCc3cccc(Cl)c3)cc2)C(=O)Nc2ccc(C(=O)c3ccccc3)cc2)CC1 [compound 67]
5. N=C(N)c1ccc(NC(=O)[C@H](Cc2ccc(OCc3ccccc3)cc2)NC(=O)[C@H]2CC[C@H](CN)CC2)cc1 [compound 126]

A:
[4.60, 4.60, 5.10, 4.40, 5.20]

----------
SUBJECT_OF_TEST: bovine trypsin (Bos taurus, UniProt P00760)
Sequence (P00760 24-246): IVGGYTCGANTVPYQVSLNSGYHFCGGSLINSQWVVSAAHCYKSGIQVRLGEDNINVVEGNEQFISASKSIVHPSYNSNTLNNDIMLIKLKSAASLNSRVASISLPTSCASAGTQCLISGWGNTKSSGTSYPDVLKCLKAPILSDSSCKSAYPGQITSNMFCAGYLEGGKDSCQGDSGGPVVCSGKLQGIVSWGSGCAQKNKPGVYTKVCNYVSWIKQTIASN
MEASUREMENT_DESCRIPTION: Antitrypsin activity: inhibition of S-2238 decomposition
Format: biochemical
APPLIED_CONDITIONS: Table 2; S-2238 substrate, pH 8.1, 37° C.; read-out: Trypsin S-2238 (I50)
Counter-ions that a name gives are not always drawn.
Please map values of IC50 to classes as shown: Low: < 800 nM; Medium: ≥ 800 nM and < 2000 nM; High: ≥ 2000 nM

These solved cases illustrate the format of a correct answer.
NCC1CCC(C(=O)NC(Cc2ccc(OCc3ccccc3)cc2)C(=O)NCc2ccc(F)cc2)CC1 (centres unmarked)    High
CC(=O)c1ccc(NC(=O)[C@H](Cc2ccc(OCc3ccc(Cl)c(Cl)c3)cc2)NC(=O)[C@H]2CC[C@H](CN)CC2)cc1    Medium

Q: Exam item: assign NCc1ccc(C(=O)N[C@@H](Cc2ccc(OCc3ccccc3)cc2)C(=O)N2CCN(C(=O)c3ccccc3)CC2)cc1 to the correct category.
A: High

Q: Param item: N=C(N)c1ccc(NC(=O)[C@H](Cc2ccc(OCc3ccccc3)cc2)NC(=O)[C@H]2CC[C@H](CN)CC2)cc1
A: Low

Q: Param item: CC1CCC(NC(=O)[C@H](Cc2ccc(OCc3ccccc3)cc2)NC(=O)c2ccc(CN)cc2)CC1C (some centres unmarked) [Compound No. 80, hydrochloride]
A: Low

Q: Param item: NC[C@H]1CC[C@H](C(=O)N[C@@H](Cc2ccc(OCc3cccc(Cl)c3)cc2)C(=O)Nc2ccnc(Cl)c2)CC1
A: Medium
